target: COX-2 (Homo sapiens, UniProt P35354); experiment: Human whole blood assay, COX-2 (LPS-induced PGE2 production); assay type: cell-based; design: endogenous in cells; host or cells: fresh heparinized human whole blood from volunteers, stimulated with LPS; details: LPS 100 µg/ml, 24 hours at 37°C, read-out: COX-2 (IC50) HWB
Sequence (P35354 18-604): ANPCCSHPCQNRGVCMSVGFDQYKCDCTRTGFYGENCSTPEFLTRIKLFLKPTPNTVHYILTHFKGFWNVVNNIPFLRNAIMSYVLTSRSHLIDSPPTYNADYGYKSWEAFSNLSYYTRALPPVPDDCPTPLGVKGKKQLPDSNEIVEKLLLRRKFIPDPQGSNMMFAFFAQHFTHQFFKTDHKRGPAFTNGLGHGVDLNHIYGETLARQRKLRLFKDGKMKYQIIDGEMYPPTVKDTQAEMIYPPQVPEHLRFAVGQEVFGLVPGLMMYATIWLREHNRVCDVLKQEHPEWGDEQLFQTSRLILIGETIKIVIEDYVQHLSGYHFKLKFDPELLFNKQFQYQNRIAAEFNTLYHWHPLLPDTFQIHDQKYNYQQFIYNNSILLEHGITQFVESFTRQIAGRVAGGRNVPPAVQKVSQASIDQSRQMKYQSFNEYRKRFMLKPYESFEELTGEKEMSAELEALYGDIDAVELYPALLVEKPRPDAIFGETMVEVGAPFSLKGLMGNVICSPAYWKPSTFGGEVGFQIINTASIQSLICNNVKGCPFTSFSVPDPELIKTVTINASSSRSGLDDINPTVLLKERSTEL
pIC50: −log10 of the molar value.
endpointName: pIC50

molecule: CC1(C)OC(=O)C(OCC2(CO)CC2)=C1c1ccc(S(C)(=O)=O)cc1 [Example 21]
observedValue: 6.05

A. CC1(C)OC(=O)C(OC2CCCC2=O)=C1c1ccc(S(C)(=O)=O)cc1 (centres unmarked) [Example 24]
B. C[C@@H](CO)COC1=C(c2ccc(S(C)(=O)=O)cc2)C(C)(C)OC1=O [Example 8]
(Q) Task for the reader: decide whether A or B has the larger pIC50. State your choice using its label.
(A) B
(B: 6.30, A: 6.10)
